System: SH-SY5Y cells
Conditions: PKIS2 primary screening, DQ Red BSA spot count
For each of the molecules below, state its DQ Spot.
Provide a numeric answer; units are not to be included.

With SH-SY5Y cells as the test system, Cl.Nc1ncnc2occ(-c3ccc(NC(=O)Nc4cc(C(F)(F)F)ccc4F)cc3)c12 [UNC10112792A] showed DQ Spot of 78.83

Summary line: "C[C@H]1CC[C@@H](C(=O)Nc2ccccc2)CN1c1cc(-c2ccc3c(N)n[nH]c3c2)nc(N)n1" , SH-SY5Y cells, reported DQ Spot = 92.27

Observed DQ Spot on SH-SY5Y cells, entry "Cc1cccc(-c2nc(Nc3ccncc3)c3ccccc3n2)n1" , equals 95.73

For the molecule O=C(Nc1ccccc1F)NC1CCN(c2ccnc(Nc3ccc(F)cc3)n2)C1 (stereo not drawn) , the measured DQ Spot on SH-SY5Y cells was 121.71

DQ Spot of Cl.Cl.NCC(NC(=O)c1cc(-c2cccnc2)c(-c2ccnc3[nH]ccc23)s1)c1ccccc1 (stereo not drawn) [UNC10225315A] , assay on SH-SY5Y cells, is 90.57

Result for Cc1cnc(N)c(/C=C/c2cncc(C(=O)NCCc3ccc(Cl)cc3Cl)c2)c1.Cl [UNC10225238A] , tested on SH-SY5Y cells, DQ Spot: 99.30

Note to self: DQ Spot of "Cc1ccc(Nc2ccnc(Nc3ccc4c(c3)CS(=O)(=O)C4)n2)cc1O" with SH-SY5Y cells was 117.73

GET /values?item= CN(C)S(=O)(=O)c1cc(-c2ccc3nccc(-c4cccc(S(N)(=O)=O)c4)c3c2)cnc1N [UNC10225457A] &system= SH-SY5Y cells returns DQ Spot: 77.18

Measured DQ Spot (SH-SY5Y cells), entry COC(=O)C(NC(=O)NC1CCN(c2ccnc(Nc3ccc(F)cc3)n2)C1)c1ccccc1 (stereo not drawn) : 102.90

Measured on SH-SY5Y cells, CCNCC(Cc1ccccc1)NC(=O)c1cc(Br)c(-c2ccnc3[nH]ccc23)s1.Cl.Cl (stereo not drawn) [UNC10225436A] has a documented DQ Spot of 102.66

Record "COC(=O)c1cccc(NC(=O)NC2CCN(c3ccnc(NCc4ccc(F)cc4)n3)CC2)c1" / SH-SY5Y cells, DQ Spot recorded as 93.58

Readout DQ Spot for COc1cc(Nc2ccnc3cc(-c4ccncc4)ccc23)cc(OC)c1OC.Cl [UNC10225049A] , test system SH-SY5Y cells, was 83.88

The value of DQ Spot recorded for "Nc1cccc(-c2ccc3c(N)n[nH]c3c2)c1" when tested on SH-SY5Y cells reads 76.28

Form field, DQ Spot with SH-SY5Y cells, item Nc1nc(-c2ccc3c(N)n[nH]c3c2)cc(N2CCCC(NC(=O)c3ccccc3)C2)n1 (stereo not drawn) : 83.48

// DQ Spot (SH-SY5Y cells) for "O=C(NCCNc1ccnc(Nc2ccc(F)cc2)n1)c1cc2ccccc2s1" = 110.46

# value of DQ Spot, SH-SY5Y cells, item c1ccc(Oc2ccc(Nc3ccnc4cc(-c5ccc(CNCCN6CCOCC6)o5)ccc34)cc2)nc1 [UNC10225054A] = 49.97

So the reported DQ Spot for Cl.c1ccc(Cn2ncc3cc(Nc4ncnc5ccccc45)ccc32)cc1 [UNC10225085A] , on SH-SY5Y cells, turned out to be 107.62

SH-SY5Y cells data for Cl.Cl.NCC(C(=O)Nc1cc(Br)c(-c2ccnc3[nH]ccc23)s1)c1ccccc1 (stereo not drawn) [UNC10225027A] ; its DQ Spot: 95.94

Record COc1cc(Nc2nccc(N3CCC(NC(=O)c4cc5ccccc5s4)C3)n2)cc(OC)c1OC (stereo not drawn) ; system SH-SY5Y cells; DQ Spot = 93.69

Noted DQ Spot for "CC(C)c1cc(-c2ccc3c(N)n[nH]c3c2)nc(N)n1" , tested on SH-SY5Y cells: 110.65

Measured DQ Spot for this entry COc1cccc(CNC(=O)NC2CCN(c3ccnc(Nc4cc(OC)c(OC)c(OC)c4)n3)C2)c1 (stereo not drawn) on SH-SY5Y cells: 97.23

Measured on SH-SY5Y cells, "Nc1nc(Nc2ccccc2)cc(-c2ccc3c(N)n[nH]c3c2)n1" has a documented DQ Spot of 97.02

# DQ Spot measured on SH-SY5Y cells for item "Cc1cccc(-c2nc(Nc3ccc4ncsc4c3)c3ccccc3n2)n1" = 103.18

Bench note, SH-SY5Y cells: entry c1ccc(-c2ccnc3[nH]ccc23)cc1 [UNC10225337A] , its DQ Spot = 96.87

GET /values?item= "C[C@@H]1CC[C@@H](C(=O)Nc2ccccc2)CN1c1cc(-c2ccc3c(N)n[nH]c3c2)nc(N)n1" &system= SH-SY5Y cells returns DQ Spot: 77.23

DQ Spot value, target or system SH-SY5Y cells, for COc1ccc(Nc2nccc(N3CCC(NC(=O)Nc4cc(C)ccc4C)C3)n2)cc1 (stereo not drawn) : 90.28

Tested system SH-SY5Y cells; DQ Spot recorded for COc1cccc(CNC(=O)NC2CCN(c3ccnc(Nc4ccc(F)cc4)n3)C2)c1 (stereo not drawn) was 106.33

----------
System: SH-SY5Y cells
Assay: AK (adenylate kinase) release ToxiLight cytotoxicity assay; also: reference of the scale not given here
Conditions: PKIS2 primary screening
Exercise: for every item that follows, state its recorded AK.
Kindly provide the number alone.

# AK (molecule: "COc1ccc(Nc2nccc(NCCNC(=O)Nc3ccccc3F)n2)cc1" ) is 100.88

The reported value for Cl.Cl.NCC(NCc1ccc(-c2ccnc3[nH]ccc23)s1)c1ccccc1 (stereo not drawn) [UNC10225471A] in terms of AK is 98.53

# AK of Oc1cc(Nc2ccnc3cc(I)ccc23)ccc1F [UNC10225441A] = 73.72

Reported AK for COc1ccc2cc(-c3nc(-c4ccccc4C(C)C)[nH]c3-c3ccncc3)ccc2c1 [UNC10225291A] was 85.35

Per the record, "Nc1nccc(-c2ccc3c(N)n[nH]c3c2)n1" has AK of 117.83

Measured AK of NS(=O)(=O)c1cccc(-c2ccc3ncc(N4CCOCC4)nc3c2)c1 [UNC10225400A] : 95.42

Notebook: O=C(Nc1cccc(-c2nn3ncccc3c2-c2ccnc(Nc3ccccc3)n2)c1)c1c(F)cccc1F [UNC10225232A] , AK read as 143.10

AK measured on O=C(Nc1cccc(-c2nn3ncccc3c2-c2ccnc(Nc3cccc(C(F)(F)F)c3)n2)c1)c1c(F)cccc1F [UNC10225174A] = 107.72

Query Fc1cccc(COc2ccc(Nc3ncnc4nn5ccccc5c34)cc2Cl)c1 [UNC10225319A] yields AK of 110.07

----------
System: SH-SY5Y cells
Assay: AK (adenylate kinase) release ToxiLight cytotoxicity assay; also: reference of the scale not given here
Conditions: PKIS2 primary screening
Just a reminder that ties go to F: only AK strictly below 90 counts as T.

Problem: Strictly below 90: is that where AK of c1ccc(Oc2ccc(Nc3ccnc4cc(-c5ccc(CN6CCCCC6)o5)ccc34)cc2)nc1 [UNC10225094A] sits?
Solution: T

Problem: Threshold test, AK < 90: NCCC(NC(=O)c1cc(Br)c(-c2ccnc3[nH]ccc23)s1)c1ccccc1.O=C(O)C(F)(F)F.O=C(O)C(F)(F)F (stereo not shown) [UNC10225503A]
Solution: T

Problem: Below 90 on AK? Entry NCC(NC(=O)c1cc(-c2cn[nH]c2)c(-c2ccnc3[nH]ccc23)s1)c1ccccc1.O=C(O)C(F)(F)F.O=C(O)C(F)(F)F (stereo not shown) [UNC10225196A]
Solution: F

Problem: Does the reported AK of the following compound sit strictly below 90? O=C(Nc1cccc(-c2nn3ccccc3c2-c2ccnc(Nc3cccc(F)c3)n2)c1)c1c(F)ccc(F)c1Cl [UNC10225081A]
Solution: T

Problem: Dear reviewer, please state whether Cc1c(O)cccc1Nc1ccnc2ccc(C(F)(F)F)cc12.Cl [UNC10225099A] has AK strictly beneath 90.
Solution: F

Problem: Is the reported AK for Cc1ccccc1COc1cc(-n2cnc3cc(Cl)ccc32)sc1C(N)=O [UNC10225491A] strictly below 90?
Solution: F

Problem: AK strictly < 90 for this compound? Cc1ccccc1-c1cc(-c2c[nH]nc2-c2ccccn2)ccn1 [UNC10225243A]
Solution: F

Problem: Here's an entry: O=c1cc(N2CCOCC2)nc2n(Cc3cccc(Cl)c3Cl)c3ccccc3n12 [UNC10225136A] . Is its AK below 90?
Solution: T

Problem: Please let me know if CNc1nccc(-c2c(-c3ccc(F)cc3)ncn2CCCN2CCOCC2)n1 [UNC10225031A] shows AK below 90.
Solution: T

Problem: Below 90 on AK? Entry COc1ccc(Nc2nccc(N3CCC(NC(=O)c4cccc(C#N)c4)C3)n2)cc1 (stereo not shown) [GSK1379730]
Solution: F

----------
Kindly state TFE3 % for each of the entries shown.
Tested on: endogenous TFE3
Experiment: TFE3 nuclear translocation, immunocytochemistry high-content imaging
Format: cell-based
Settings: PKIS2 primary screening
Reply numerically in %, unit not repeated.

Just so you know, measured TFE3 % for "COc1ccc(CNC(=O)NC2CCN(c3ccnc(Nc4ccc(F)cc4)n3)CC2)cc1" came out at 14.89

Entry CCn1c(-c2ccoc2)nc2cnccc21 [UNC10225474A] ; TFE3 % = 9.12

Field TFE3 % (entry "Nc1n[nH]c2cc(-c3ccccn3)ccc12" ) reads 11.18

Where do these numbers come from? They come from paper PMC9851200.
